Origin of values: patent US11230593B2

System: A/Michigan/45/2015 (H1N1)
Test: microbe, parasite or virus in culture
Type: cell-based, Influenza A
Conditions: read-out: EC50 (μM) - Replicate 2
reported-metric: EC50

In: // EC50 lookup, key: CCC(CC)[C@H](NC(C)=O)[C@@H]1[C@H](O)[C@@H](C(=O)O)C[C@H]1N=C(N)N.O.O.O [Peramivir (PER), Peramivir trihydrate]
Out: < 0.006 µM
